Tested on: U-2 OS
Run Description: cell painting activity score (Mahalanobis distance from DMSO wells); higher = stronger morphological phenotype
Condition Notes: 40 µM; 24 h
Returns one of Fulfilled or Not fulfilled; Fulfilled when cell painting activity score is >= 10.

// below: answered compounds
COc1ccc(/C(Cl)=C(/C=O)c2ccc(OC)cc2)cc1 ... Fulfilled
CC(=O)c1c(O)c(C)c(O)c(Cc2c(O)c3c(c(C(=O)C=Cc4ccccc4)c2O)OC(C)(C)C=C3)c1O ... Fulfilled
CCN1C(=O)C=CC1=O ... Not fulfilled

Now for a further compound.
Determine whether this compound has cell painting activity score no lower than 10: Cl.Cl.O=C(O)Cn1nnc(-c2ccc(CN(CCCCOc3ccc(CN4CCCC4)cc3)CCc3ccccc3)cc2)n1 Fulfilled
